Assay System: Vascular endothelial growth factor receptor 3 (Homo sapiens)
Observation Type: IC50 (nM)
Give bare numbers, in nM.

Input c1cn(Cc2ccc3c(c2)-c2[nH]nc(-c4ccsc4)c2C3)cn1 . Output IC50: 169

* * *

Assay System: Platelet-derived growth factor receptor (Homo sapiens, UniProt P09619+P16234)
Run Description: Inhibition of PDGFR by HTRF assay
Observation Type: IC50

Input CN1CCN(Cc2ccc3c(c2)-c2[nH]nc(-c4ccsc4)c2C3)CC1 . Output IC50: > 50 µM

* * *

Assay System: Vascular endothelial growth factor receptor 2 (Homo sapiens)
Run Description: Inhibition of VEGF-induced human KDR phosphorylation transfected in NIH3T3 cells by ELISA
Assay type: functional, cell-based
Observation Type: pIC50
Answers are plain numbers, as −log10 of the molar value.

Input c1cn(Cc2ccc3c(c2)-c2[nH]nc(-c4ccsc4)c2C3)cn1 . Output pIC50: 6.53

* * *

Assay System: Angiopoietin-1 receptor (Homo sapiens, UniProt Q02763)
Observation Type: IC50 (µM)
One number for each entry, in µM.

Input c1cn(Cc2ccc3c(c2)-c2[nH]nc(-c4ccsc4)c2C3)cn1 . Output IC50: 17.6

* * *

Assay System: Hepatocyte growth factor receptor (Homo sapiens)
Observation Type: IC50

Input CN1CCN(Cc2ccc3c(c2)-c2[nH]nc(-c4ccsc4)c2C3)CC1 . Output IC50: > 50 µM

* * *

Lab note: IC50 readings collected with Vascular endothelial growth factor receptor 1 (Homo sapiens, UniProt P17948) for the following compounds.
Give the figure together with its unit, number first.

Smi: CN1CCN(Cc2ccc3c(c2)-c2[nH]nc(-c4ccsc4)c2C3)CC1
Observed Measurement: 970 nM

Read the next record carefully.
Input c1cn(Cc2ccc3c(c2)-c2[nH]nc(-c4ccsc4)c2C3)cn1 . Output IC50: 601 nM

* * *

Lab note: log10(IC50) readings collected with Vascular endothelial growth factor receptor 2 (Homo sapiens, UniProt P35968) for the following molecules.
Scale: log10; quantity: IC50; unit before log: µM

Smi: c1cn(Cc2ccc3c(c2)-c2[nH]nc(-c4ccsc4)c2C3)cn1
Observed Measurement: -0.83

Provide the reported log10(IC50) of each entry below, same order.
1. CCN(CC)Cc1ccc2c(c1)-c1n[nH]c(-c3ccsc3)c1C2
2. CN1CCN(c2ccc3c(c2)Cc2c(-c4cccs4)n[nH]c2-3)CC1
3. CC(C)N1CCN(Cc2ccc3c(c2)-c2n[nH]c(-c4ccsc4)c2C3)CC1
4. O=CN1CCN(Cc2ccc3c(c2)-c2n[nH]c(-c4ccsc4)c2C3)CC1
5. CN1CCN(Cc2ccc3c(c2)-c2[nH]nc(-c4ccsc4)c2C3)CC1

Output:
1: -0.08; 2: 3.00; 3: -0.72; 4: -0.18; 5: -0.74

Provide the reported log10(IC50) of each entry below, same order.
1. CN1CCN(C(=O)c2ccc3c(c2)-c2[nH]nc(-c4ccsc4)c2C3)CC1
2. c1ncn(Cc2ccc3c(c2)-c2n[nH]c(-c4ccsc4)c2C3)n1

Output:
1. 0.61
2. -0.97

Provide the reported log10(IC50) of each entry below, same order.
1. c1cn(Cc2ccc3c(c2)-c2[nH]nc(-c4ccsc4)c2C3)nn1
2. CN1CCN(CCc2ccc3c(c2)-c2n[nH]c(-c4ccsc4)c2C3)CC1

Output:
1. -0.72
2. -0.84
